# test.system: HRgpA-6H (Porphyromonas gingivalis) (UniProt P28784)
# assay.details: ELISA, FASEBA Fab on coated HRgpA-6H
measured.endpoint: OD450nm

Can you share its OD450nm? I mean this binder: KB001 mouse Fab VL S26T (Fab, V domains shown) VH: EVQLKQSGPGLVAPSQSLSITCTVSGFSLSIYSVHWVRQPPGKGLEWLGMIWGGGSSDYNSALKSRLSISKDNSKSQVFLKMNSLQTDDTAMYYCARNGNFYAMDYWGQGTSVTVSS VL: QIVLTQSPAIMSASLGERVTMTCTATSSVSSSFLHWYQQKPGSSPQLWIYSTSNLASGVPARFSGSGSGTSYSLTISSMEAEDAATYYCHQYHHSPYIYTFGGGTKLEIK
0.761

Next record, please: KB001 mouse Fab VL H90W (Fab, V domains shown) VH: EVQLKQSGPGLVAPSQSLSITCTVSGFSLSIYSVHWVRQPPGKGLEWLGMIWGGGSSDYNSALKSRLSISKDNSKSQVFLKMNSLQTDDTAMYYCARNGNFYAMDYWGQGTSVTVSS VL: QIVLTQSPAIMSASLGERVTMTCTASSSVSSSFLHWYQQKPGSSPQLWIYSTSNLASGVPARFSGSGSGTSYSLTISSMEAEDAATYYCWQYHHSPYIYTFGGGTKLEIK
0.913

Next record, please: KB001 mouse Fab VL Y97E (Fab, V domains shown) VH: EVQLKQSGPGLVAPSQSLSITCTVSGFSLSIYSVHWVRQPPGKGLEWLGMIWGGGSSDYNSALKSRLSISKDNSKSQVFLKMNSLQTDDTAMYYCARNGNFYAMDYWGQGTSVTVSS VL: QIVLTQSPAIMSASLGERVTMTCTASSSVSSSFLHWYQQKPGSSPQLWIYSTSNLASGVPARFSGSGSGTSYSLTISSMEAEDAATYYCHQYHHSPEIYTFGGGTKLEIK
0.793
